System: TFEB
Assay Method Text: TFEB nuclear translocation assay
Assay type: cell-based
Stated Conditions: Homo sapiens; HeLa wt or HeLa TRPML1 KO cells, treated for 2 hrs; ratio of nuclear to ring-region TFEB intensity
Description: For the TFEB nuclear translocation assay, HeLa wt or HeLa TRPML1 KO cells were plated at 2700 cells/well into black-walled, 384-well Cell carrier Ultra tissue culture treated plates in complete media and incubated overnight. The next day, cells are treated for 2 hrs with compounds and incubated at 37° C. […] Images were quantified using PerkinElmer Harmony software, briefly: apply flatfield correction (basic/advanced) for input images. […]
Listing of entries alongside the reported EC50.

| Compound | EC50 |
| --- | --- |
| O=S(=O)(c1ccc(C(F)F)cc1)N1CC2(CCN(CC(F)(F)F)C2)c2ccccc21 (stereo not shown) | 2.01 to 8 µM |
| COc1cccc(NC(=O)N2CCC3(CC2)CN(S(=O)(=O)c2ccc(C(F)F)cc2)c2ccccc23)c1OC | ≤ 2 µM |
| COC1Cc2ccc(S(=O)(=O)N3CC4(CCCC4)c4ccccc43)cc2C1 (stereo not shown) | ≥ 10 µM |
| COC(=O)C(C)(C)c1ccc(S(=O)(=O)N2CC3(CCCC3)c3ccccc32)cc1 | ≥ 10 µM |
| CC(c1ccc(S(=O)(=O)N(C)C)cc1)N1CC2(CCCCC2)c2ccccc21 (stereo not shown) | ≥ 10 µM |

Problem: Looking for the measured EC50 of `CN(C)S(=O)(=O)c1ccc(S(=O)(=O)N2CC3(CCCCC3)c3ccccc32)cc1` , can you help?
Result: ≤ 2 µM

Problem: Next record, please: `O=S(=O)(c1ccc2c(c1)COCC2)N1CC2(CCCC2)c2ccccc21`
Result: 2.01 to 8 µM

Problem: Next record, please: `O=S(=O)(c1ccc(C2OCCO2)cc1F)N1CC2(CCCC2)c2ccccc21`
Result: ≥ 10 µM

Problem: Next record, please: `CN(C)S(=O)(=O)c1ccc(S(=O)(=O)N2CC3(CCN(C(=O)C(C)(C)C)CC3)c3ccccc32)cc1`
Result: ≤ 2 µM

Problem: Next record, please: `CN(C)S(=O)(=O)c1ccc(S(=O)(=O)N2CCC3(CCN(CC(F)(F)F)CC3)c3ccccc32)cc1`
Result: ≤ 2 µM
